- MEASURED_TARGET: CD34 (human orbital fibroblasts) (Homo sapiens) (UniProt P28906)
- Sequence: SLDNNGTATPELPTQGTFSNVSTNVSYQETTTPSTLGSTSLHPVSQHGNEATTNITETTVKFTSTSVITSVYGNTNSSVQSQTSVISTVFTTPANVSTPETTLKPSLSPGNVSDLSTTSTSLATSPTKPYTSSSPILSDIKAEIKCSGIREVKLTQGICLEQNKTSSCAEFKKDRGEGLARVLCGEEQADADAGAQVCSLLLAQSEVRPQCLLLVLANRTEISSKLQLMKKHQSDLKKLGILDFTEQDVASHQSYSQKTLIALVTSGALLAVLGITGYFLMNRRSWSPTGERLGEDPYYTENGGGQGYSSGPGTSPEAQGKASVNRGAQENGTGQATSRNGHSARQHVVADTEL
- RUN_DESCRIPTION: flow cytometry
- CONDITION_INFO: whole-cell binding to human orbital fibroblasts, 4 C, 1 h, SELEX binding buffer: DPBS, 4.5 mg/mL D-glucose, 5 mM MgCl2, 1 mg/mL BSA, 1 mg/mL yeast tRNA, flow cytometry at 4 C, pull-down lysis buffer 5 mM …
MEASURE: Kd (nM)
Numbers only, in nM.

Exercise: Checklist item: Kd tested on CD34 (human orbital fibroblasts) (Homo sapiens) (UniProt P28906), entry CAGCACCGTCAACTGAATCTCATTGCGGCGTCCGGCTGGACGTTATTGTTGGAACCGTGATGCGATGGAGATGT [CD34 Apt (FAM)] , value?
Solution: 19.1
